In this section, each of the compounds is paired with its reported MBC, minimum concentration required to kill an entire population.
# System: Cornyeform amycolatum
# protocol.description: EDTA salt dilution test, MIC/MBC
# Format: cell-based
# reported.conditions: Exhibit A1
readout: MBC, minimum concentration required to kill an entire population

{"compound": "N.N.O=C(O)CN(CCN(CC(=O)O)CC(=O)O)CC(=O)O", "readout.value": "1000 µg/mL"}
{"compound": "O=C([O-])CN(CCN(CC(=O)[O-])CC(=O)[O-])CC(=O)[O-].[Mg+2].[Na+].[Na+] [Magnesium disodium EDTA]", "readout.value": "4000 µg/mL"}
{"compound": "O=C([O-])CN(CCN(CC(=O)[O-])CC(=O)[O-])CC(=O)[O-].[Cu+2].[Na+].[Na+] [Cupric disodium EDTA]", "readout.value": "<500 µg/mL"}
{"compound": "O=C([O-])CN(CCN(CC(=O)O)CC(=O)O)CC(=O)[O-].[K+].[K+]", "readout.value": "<500 µg/mL"}
{"compound": "O=C([O-])CN(CCN(CC(=O)[O-])CC(=O)[O-])CC(=O)[O-].[Fe+3].[Na+] [Ferric-sodium salt EDTA]", "readout.value": "10000 µg/mL"}
{"compound": "O=C([O-])CN(CCN(CC(=O)[O-])CC(=O)[O-])CC(=O)[O-].[Na+].[Na+].[Na+].[Na+] [Tetrasodium EDTA]", "readout.value": "<500 µg/mL"}
